assay_target: SARS‐CoV‐2 RdRp complex (nsp12, nsp7, nsp8) (Severe acute respiratory syndrome coronavirus 2)
method_notes: Fluorescence-based RdRp polymerase assay (SYBR Green I RNA extension)
Assay type: biochemical
cond: 50 min, read-out: residual activity (RA) of the SARS‐CoV‐2 RdRp complex

| compound | units | remaining activity at 10 µM |
| --- | --- | --- |
| COc1cc(NC(=O)Nc2cccc(CNC(=O)O[C@H]3CCOC3)c2)ccc1-c1cnco1 [merimepodib, reference compound] | % | 100 |
| COC(=O)c1cc(NC(=O)Nc2ccccc2)cc(C(=O)OC)c1 [Compound 23] | % | 100 |
| COC(=O)c1cc(NC(=O)Nc2ccc(S(N)(=O)=O)cc2)cc(C(=O)OC)c1 [Compound 8] | % | 100 |
| COC(=O)c1cc(NC(=O)Nc2ccncc2)cc(C(=O)OC)c1 [Compound 14] | % | 100 |
| COC(=O)c1cc(NC(=O)Nc2ccc(C)cc2)cc(C(=O)OC)c1 [Compound 25] | % | 100 |
| O=C(Nc1cc(Cl)cc(Cl)c1)Nc1nc2ccc(C(F)(F)F)cc2[nH]1 [Compound 60] | % | 28 |
| O=C(Nc1cccc([N+](=O)[O-])c1)Nc1cnccn1 [Compound 39] | % | 100 |
| O=C(Nc1cccc(C(F)(F)F)c1)Nc1nc2cc(Cl)c(Cl)cc2[nH]1 [Compound 59] | % | 50 |
| O=C(Nc1cc(C(=O)O)cc(C(=O)O)c1)Nc1cccc([N+](=O)[O-])c1 [Compound 21] | % | 100 |
| O=C(Nc1cccc([N+](=O)[O-])c1)Nc1ccc2ccccc2c1 [Compound 30] | % | 73 |
| O=C(Nc1ccc(C(F)(F)F)cc1)Nc1cccc([N+](=O)[O-])c1 [Compound 32] | % | 100 |
| O=C(Nc1ccc(Cl)cc1)Nc1cccc([N+](=O)[O-])c1 [Compound 33] | % | 100 |
| FC(F)(F)c1cccc(Nc2nc3cc(Cl)c(Cl)cc3[nH]2)c1 [Compound 56] | % | 60 |
| COC(=O)c1ccc(C(=O)OC)c(NC(=O)Nc2cccc([N+](=O)[O-])c2)c1 [Compound 36] | % | 100 |
| O=C(Nc1ccc([N+](=O)[O-])cc1)Nc1cc(Cl)cc(Cl)c1 [Compound 41] | % | 40 |
| COC(=O)c1cc(NC(=O)Nc2cccc(C(=O)O)c2)cc(C(=O)OC)c1 [Compound 13] | % | 100 |
| O=C(Nc1ccc([N+](=O)[O-])cc1)Nc1ccccc1Cc1ccccc1 [Compound 42] | % | 63 |
| O=C(Nc1cccc([N+](=O)[O-])c1)Nc1cccc([N+](=O)[O-])c1 [Compound 18, 1,3‐Bis(3‐nitrophenyl)urea] | % | 100 |
| O=C(Nc1cc(Cl)cc(Cl)c1)c1nc2ccc(C(F)(F)F)cc2[nH]1 [Compound 58] | % | 100 |
| CC(=O)Nc1cccc(NC(=O)Nc2cccc([N+](=O)[O-])c2)c1 [Compound 37] | % | 100 |
| O=C(Nc1cc(Cl)cc(Cl)c1)C(=O)Nc1cccc(C(F)(F)F)c1 [Compound 53] | % | 100 |
| COc1cc(NC(=O)Nc2cccc([N+](=O)[O-])c2)cc(OC)c1 [Compound 38] | % | 100 |
| O=C(Nc1cccc([N+](=O)[O-])c1)Nc1cc(C(F)(F)F)cc(C(F)(F)F)c1 [Compound 19] | % | 62 |
| CCCCNC(=O)Nc1cc(C(=O)OC)cc(C(=O)OC)c1 [Compound 5, Dimethyl 5‐(3‐Butylureido)isophthalate] | % | 100 |
| CCOC(=O)c1cccc(NC(=O)Nc2cc(C(=O)OC)cc(C(=O)OC)c2)c1 [Compound 10] | % | 100 |
| CNC(=O)c1cc(Oc2ccc(NC(=O)Nc3ccc(Cl)c(C(F)(F)F)c3)c(F)c2)ccn1 [regorafenib, reference compound] | % | 76 |
| O=C(Nc1ccccc1)Nc1ccc(-c2ccc(C(=O)[C@@H]3CCC[C@H]3C(=O)O)cc2)cc1 [Compound A922500, A922500, reference compound] | % | 100 |
| CC(C)OC(=O)c1cc(NC(=O)Nc2cccc([N+](=O)[O-])c2)cc(C(=O)OC(C)C)c1 [Compound 1] | % | 57 |
| COC(=O)c1cc(NC(=O)Nc2cccc(C(F)(F)F)c2)cc(C(=O)OC)c1 [Compound 9] | % | 70 |
| COC(=O)c1cc(NC(=O)Nc2cc(C(F)(F)F)cc(C(F)(F)F)c2)cc(C(=O)OC)c1 [Compound 11] | % | 65 |
| COc1ccc(NC(=O)Nc2cc(C(=O)OC(C)C)cc(C(=O)OC(C)C)c2)c(OC)c1 [Compound 27] | % | 100 |
| O=C(Cc1cc(Cl)cc(Cl)c1)Nc1ccc([N+](=O)[O-])cc1 [Compound 52] | % | 100 |
| COC(=O)c1cc(NC(=O)Nc2cc([N+](=O)[O-])cc([N+](=O)[O-])c2)cc(C(=O)OC)c1 [Compound 12] | % | 100 |
